# Target of assay: SIK1 kinase (aa1-303, Thermo Fisher) (Homo sapiens, UniProt P57059)
# Construct: SIK1 kinase (aa1-303, Thermo Fisher); purchased Thermo Fisher
# Sequence (P57059 1-303): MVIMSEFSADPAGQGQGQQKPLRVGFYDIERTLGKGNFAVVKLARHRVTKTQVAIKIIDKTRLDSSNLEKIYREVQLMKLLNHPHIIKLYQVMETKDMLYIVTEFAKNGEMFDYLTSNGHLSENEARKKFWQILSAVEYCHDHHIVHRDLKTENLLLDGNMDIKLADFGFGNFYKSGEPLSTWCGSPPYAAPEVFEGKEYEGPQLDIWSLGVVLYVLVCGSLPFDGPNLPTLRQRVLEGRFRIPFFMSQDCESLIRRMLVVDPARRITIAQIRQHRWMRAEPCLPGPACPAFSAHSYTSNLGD
# Experiment notes: Biochemical activities determination for SIK1 protein (TR-FRET)
# Measurement parameters: 110 uM ATP, 0.5 μM STK1 substrate
Readout kind: IC50 (nM)
Report the value in nM with no unit label.

compound_structure=COc1cc(-c2coc3cc(OCCN4CCCC4)ccc23)cc(OC(F)F)c1C(=O)N[C@@H]1C[C@@H]1F readout_kind=IC50 result_number=2450
compound_structure=O=C(NC1CC1)c1c(OCCO)cc(-c2coc3cc(OCCN4CCCC4)ccc23)cc1OC(F)F readout_kind=IC50 result_number=9500

Quick one: IC50 for CCc1nnc(-c2c(OC)cc(-c3coc4cc(-c5cnn(C)c5)ccc34)cc2OC)o1 ?
2090
